Test: DUSP6 inhibitors restoring Erk phosphorylation by chemical complementation, primary imaging in DUSP6-transfected HeLa (AID 609)
Conditions: HeLa MKP-3 transfected, phospho-Erk imaging KS statistic; measured here: nuclear pErk red intensity z-score; at 10 µM; stronger effect = higher value; cells stimulated with TPA for 15 min
RECORDED METRIC: z-score

                                    molecule  meas_value
 0  COc1ccc(CNc2oc(COc3ccc(Cl)cc3)nc2C#N)cc1      0.0628
 1  COc1ccccc1-n1c(N)c(C(=O)NCC2CCCO2)c2nc3ccccc3nc21 (configuration not stated)       0.209
 2       Brc1ccc2c(c1)CNc1c(ncnc1N1CCOCC1)O2        1.59
 3     COC(=O)CSCC(=O)Nc1cc2c(cc1C(C)=O)OCO2        1.67
 4  CCOC(=O)C(C)Oc1ccc2c(C)cc(=O)oc2c1C(C)=O (configuration not stated)        1.56
 5         COC(=O)c1cc(Br)c(=O)n(Cc2ccco2)c1       -1.02
 6  COCCCNC(=O)c1c(N)n(/N=C/c2cccnc2)c2nc3ccccc3nc12        2.99
 7  O=C1C(=O)N(Cc2cccnc2)C(c2ccccn2)/C1=C(/O)c1ccccc1 (configuration not stated)      -0.436
 8  Cn1c(N2CCN(c3ccccn3)CC2)nc2c1c(=O)n(Cc1ccccc1Cl)c(=O)n2C        1.36
 9  Cn1c(N2CCN(c3ccccn3)CC2)nc2c1c(=O)n(Cc1ccc(Cl)cc1)c(=O)n2C      -0.591
10   CC1(C)Cc2c(c(N3CCOCC3)nc3snc(Br)c23)CO1       -2.36
11     CCC(NC(=O)Nc1nccs1)(C(F)(F)F)C(F)(F)F      -0.804
12              N#CCCN(C(=O)c1ccco1)c1ccccc1      -0.443
13  CCOC(=O)Oc1ccc2c(c1)C(C)=CC(C)(C)N2C(=O)OCC       0.465
14  O=C1CC(c2ccccc2)n2nc(NS(=O)(=O)c3ccccc3)nc2N1 (configuration not stated)      -0.593
15   C=CCNc1nc(NCc2ccccc2)c(C#N)c2c1CN(C)CC2       0.356
16  N#Cc1c(NCCN)nc(NCc2ccccc2)c2c1CCN(Cc1ccccc1)C2        1.05

---

Target: Alpha-2C adrenergic receptor (Homo sapiens) (UniProt P18825)
Sequence (P18825 whole entry, looked up): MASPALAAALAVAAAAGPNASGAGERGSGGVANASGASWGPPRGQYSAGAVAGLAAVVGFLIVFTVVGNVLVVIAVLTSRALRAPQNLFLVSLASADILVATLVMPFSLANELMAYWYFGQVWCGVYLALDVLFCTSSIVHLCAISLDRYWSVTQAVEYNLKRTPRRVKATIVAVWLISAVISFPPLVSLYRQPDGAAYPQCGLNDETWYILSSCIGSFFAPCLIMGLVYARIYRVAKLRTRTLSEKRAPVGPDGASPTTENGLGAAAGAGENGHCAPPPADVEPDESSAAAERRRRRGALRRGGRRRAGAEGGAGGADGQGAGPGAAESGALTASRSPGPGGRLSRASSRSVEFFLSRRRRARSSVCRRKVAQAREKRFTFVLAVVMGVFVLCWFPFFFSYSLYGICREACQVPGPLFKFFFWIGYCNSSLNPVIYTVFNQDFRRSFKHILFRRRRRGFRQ
Assay: modulators of alpha2C/GIRK thallium flux, primary screen, cell-based, HEK293 alpha2C/GIRK1/2 (AID 624);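 note: slope of fluorescence ratio to pre-addition baseline per second over 15 to 24 s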
Conditions: thallium flux BTC fluorescence, at 10 µM, actives lie on both sides
Listing of entries alongside the reported slope.
RECORDED METRIC: slope

In [3]: df
Out[3]:
                                    molecule  meas_value
 0  O=C(NC1CC1)C1CCN(c2ccc(S(=O)(=O)N3CCOCC3)cc2)CC1     0.00268
 1  COc1cc(C2c3c(oc4c(C)cc(C)cc4c3=O)C(=O)N2Cc2cccnc2)ccc1O (stereo not drawn)     0.00579
 2  CCOC(=O)N1CCN(C(=O)CSc2nnc(-c3cccc(Cl)c3)o2)CC1     0.00621
 3             O=C(c1cccc(F)c1)N1CCc2ccccc21      0.0055
 4              CCCc1cc(C(=O)Nc2ccccc2SC)no1     0.00474
 5  COc1ccc(-n2c(Cc3cccn3C)nnc2SCC(=O)Nc2cccc(OC)c2)cc1     0.00546
 6  COc1ccc(S(=O)(=O)N2CCCC(C(=O)NCc3ccccn3)C2)cc1 (stereo not drawn)     0.00625
 7  Cc1ccccc1NC(=O)CN1CCC(NC(=O)Nc2ccccc2)CC1     0.00566
 8                    O=C(CSCc1cccs1)N1CCCC1     0.00575
 9   CCOC(=O)N1CCN(C(=O)CSc2ncnc3ccccc23)CC1     0.00632
10  CC(C)COC(=O)NCC12C=CC(O1)C1C(=O)N(c3ccc(Cl)cc3)C(=O)C12 (stereo not drawn)       0.005
11       O=C(c1ccncc1)N1CCN(C(=O)c2cccs2)CC1     0.00631
12  CCN(C(=O)c1c(OC)cccc1OC)c1nnc(-c2cccnc2)s1     0.00467
13  C/C=C(\CS(=O)(=O)c1ccccc1)S(=O)(=O)c1ccccc1     0.00524
14  CN(C(=O)C1CCCO1)c1nnc(-c2ccncc2)s1 (stereo not drawn)     0.00538
15  Cc1ccc2nc(NC(=O)C3CCCN(S(=O)(=O)c4cnc[nH]4)C3)sc2c1 (stereo not drawn)     0.00608
16  CCOC(=O)c1sc(NC(=O)CSc2n[nH]c(-c3ccccc3)n2)c(C#N)c1C     0.00567
17  O=C(Cn1nnc(-c2ccccc2)n1)Nc1ccccc1N1CCOCC1      0.0042
18         O=C(O)c1cccc(S(=O)(=O)N2CCOCC2)c1     0.00562
19  COc1cccc(C(c2nnnn2CCc2ccccc2)N2CCN(c3ccccc3)CC2)c1OC (stereo not drawn)     0.00514
20  CC(C)CCNC(=O)Cn1c(NCCC(C)C)nc2c1c(=O)n(C)c(=O)n2C      0.0069
21  CCC(c1nnnn1C(C)(C)C)N1CCN(C2CCCC2)CC1 (stereo not drawn)     0.00353
22     OCc1cn(-c2ccccc2)nc1-c1ccc2c(c1)OCCO2     0.00702
23  O=C(Nc1ccccc1)N1CCC(c2ccccc2)C1 (stereo not drawn)     0.00694
24  CCCCS(=O)(=O)NC1=NCN(C2CCN(Cc3ccccc3)CC2)CN1     0.00667
25  C=CCn1c(SCn2nnc3ccccc3c2=O)nnc1-c1ccc(Br)cc1     0.00508
26  O=C(COc1ccccc1)N1CCN(C(=O)c2cccc(F)c2)CC1     0.00634
27  CCOC(=O)C1CCN(c2c(NC3CCCc4ccccc43)c(=O)c2=O)CC1 (stereo not drawn)     0.00585
28  CN(CCc1ccccn1)C(=O)CCNC(=O)Cn1cnc2ccccc2c1=O     0.00589
29  CCOC(=O)N1CCN(S(=O)(=O)c2cc(Cl)ccc2Cl)CC1     0.00556
30  Cc1ccc(C)c(C(=O)CC2(O)C(=O)Nc3ccccc32)c1 (stereo not drawn)     0.00493
31  CC1CCCCC1NC(=O)Cn1nnc(-c2ccc(Cl)cc2)n1 (stereo not drawn)     0.00728
32  CC1NC2(C(=O)N(Cc3ccccc3)c3ccccc32)C2C(=O)N(c3ccccc3)C(=O)C12 (stereo not drawn)      0.0066
